# System: Target C mRNA
# Test Description: RT-qPCR splicing assay panel, Target C canonical junction (CJ) mRNA
# Format: cell-based, human
# Settings: Homo sapiens, canonical junction (CJ) mRNA, RT-qPCR panel, Table 4A; read-out: Target C, decrease in CJ mRNA levels, IC50

{"columns": ["Molecule", "IC50"],
 "data": [
  ["COc1cc(-c2ccc(-c3ccc(N4CCC(NC5CC6(CCC6)C5)C4)nn3)c(O)c2)cnn1 (stereo not shown)", "100 to 1000 nM"],
  ["COc1cc(-c2ccc(-c3ccc(N4CCC(CNC5CCC5)C4)nn3)c(O)c2)cnn1 (stereo in doubt) [Compound 441]", "100 to 1000 nM"],
  ["Cn1ncc(-c2ccc(-c3ccc(N4CC[C@H](NC(C)(C)C)C4)nn3)c(O)c2)cc1=O", "100 to 1000 nM"],
  ["Oc1cc(-c2cn[nH]c2)ccc1-c1ccc(N2CC[C@@H](NC3CCC3)C2)nn1", "100 to 1000 nM"],
  ["COc1cc(-c2ccc(-c3cc(C#N)c(OC4CC(C)(C)NC(C)(C)C4)nn3)c(O)c2)cnn1", "1000 to 10000 nM"],
  ["Cc1ncc(-c2cc(O)c(-c3ccc(N4CC[C@H](NCC5CCC5)C4)nn3)cc2F)s1", "< 100 nM"],
  ["COc1cc(-c2ccc(-c3cc(C#N)c(N4CC[C@H](NC5CCC5)C4)nn3)c(O)c2)cnn1", "1000 to 10000 nM"],
  ["COc1cc(-c2ccc(-c3ccc(N4CC[C@@H](N(C)C(C)(C)C)C4)nn3)c(O)c2)cnn1", "< 100 nM"],
  ["CCN(C1CCC1)[C@H]1CCN(c2ccc(-c3ccc(-c4cnnc(OC)c4)cc3O)nn2)C1", "100 to 1000 nM"],
  ["COc1cc(-c2ccc(-c3ccc(N4CC[C@H](N[C@H]5C[C@@H](F)C5)C4)nn3)c(O)c2)ncn1", "100 to 1000 nM"],
  ["COc1cc(-c2cc(O)c(-c3ccc(N4CC[C@@H](NC5CCC5)C4)nn3)cc2F)cnn1", "1000 to 10000 nM"],
  ["COc1cc(-c2ccc(-c3ccc(N4CC[C@@H](NC5(C)CCC5)C4)nn3)c(O)c2)ncn1", "< 100 nM"],
  ["Oc1cc(-c2cn[nH]c2)ccc1-c1ccc(N2CCC(NCC3CC3)C2)nn1 (stereo not shown)", "100 to 1000 nM"],
  ["Oc1cc(-c2cn[nH]c2)ccc1-c1ccc(N2CC[C@H](NC3CCC3)C2)nn1", "< 100 nM"],
  ["Cc1ncc(-c2cc(O)c(-c3ccc(N4CC[C@@H](N[C@@H](C)C5CC5)C4)nn3)cc2F)s1", "< 100 nM"],
  ["Cc1nc2ccc(-c3ccc(-c4ccc(N5CCC(NC6CCC6)C5)nn4)c(O)c3)cc2o1 (stereo not shown)", "100 to 1000 nM"],
  ["COc1cc(-c2ccc(-c3ccc(N4CC[C@H](N[C@H]5C[C@H](F)C5)C4)nn3)c(O)c2)ncn1", "1000 to 10000 nM"],
  ["Cc1ncc(-c2cc(O)c(-c3ccc(N4CC[C@H](NC5CCC5)C4)nn3)cc2F)o1", "100 to 1000 nM"],
  ["Cc1nc(C#N)c(-c2cc(O)c(-c3ccc(N4CC[C@H](NC5CCC5)C4)nn3)cc2F)s1", "100 to 1000 nM"]
]}
